Tested on: tyrosinase
Experiment: Tyrosinase inhibition, absorbance of Dopa-Chroma at 475 nm
Assay type: biochemical, mushroom
Settings: Inhibitory agent 0.15mg/ml; tyrosine substrate; 30 minutes at 37° C.
Form field: Inhibition (%) (one value per entry).
Numbers only; they are read as %.

compound="Oc1cc(O)c2c(c1)O[C@H](c1cc(O)c(O)c(O)c1)[C@H](O)C2 [Epigallocatechin, (-)Epigallocatechin]" observed=17.5

Prompt: Would you please give the reported Inhibition (%) of O=C(O[C@@H]1Cc2c(O)cc(O)cc2O[C@@H]1c1cc(O)c(O)c(O)c1)c1cc(O)c(O)c(O)c1 [Epigallocatechin gallate, (-)Epigallocatechin gallate] with tyrosinase?
Completion: 79.5

Prompt: Report value only: Inhibition (%), tyrosinase, Oc1cc(O)c2c(c1)O[C@H](c1ccc(O)c(O)c1)[C@H](O)C2 [Epicatechin, (-)Epicatechin]
Completion: 11.9

Prompt: Write down measured Inhibition (%) (tyrosinase) for this compound. O=C(O[C@@H]1Cc2c(O)cc(O)cc2O[C@@H]1c1ccc(O)c(O)c1)c1cc(O)c(O)c(O)c1 [Epicatechin gallate, (-)Epicatechin gallate]
Completion: 95.1

// provenance: patent US5670154A
